molecular target: monoclonal antibody mAB 198; assay: peptide microarray, fluorescence, cyclic peptide
Where no end group is shown, it is not given here.
ASSAY METRIC: relative signal [%] (%)

Worked cases, relative signal [%] given:
- BINDER: "LRWNPADYR (also: cyclic peptide, mode of cyclisation not given here)"
  relative signal [%], %: 10.3
- BINDER: "DVRLRQNPADY (not fully specified; cyclic peptide) [DVRLRONPADY, cyclic mimotope]"
  relative signal [%], %: 8.8
- BINDER: "RLRPNPADY (also: cyclic peptide, ring type and places not given here)"
  relative signal [%], %: 9.8
- BINDER: "SLRWNPADYHG (also: cyclic peptide, mode of cyclisation not given here)"
  relative signal [%], %: 8.7
- BINDER: "SLYWNPADY (also: cyclic peptide, mode of cyclisation not given here)"
  relative signal [%], %: 9.4
- BINDER: "RWNPADR (also: cyclic peptide, ring type and places not given here) [RWNPADR, cyclic mimotope]"
  relative signal [%], %: 11
- BINDER: "VRLRVNPADYG (also: cyclic peptide, mode of cyclisation not given here)"
  relative signal [%], %: 13.4
- BINDER: "VRLRINPADYG (also: cyclic peptide, mode of cyclisation not given here)"
  relative signal [%], %: 10
- BINDER: "RLYWNPADY (also: cyclic peptide, ring type and places not given here)"
  relative signal [%], %: 13.7
- BINDER: "LRLNPADYG (also: cyclic peptide, mode of cyclisation not given here)"
  relative signal [%], %: 28.6

a: NPADYRG (also: cyclic peptide, ring type and places not given here) [NPADYRG, cyclic mimotope]
b: RLRQNPADY (not fully specified; cyclic peptide) [RLRONPADY, cyclic mimotope]
c: RLRVNPADY (also: cyclic peptide, ring type and places not given here)
[in] Returns the items ordered by relative signal [%], from maximum to minimum. Put the labels in the requested order and write them down.
[out] c, a, b
